ASSAY TEXT: Caco-2 Assay (Papp A to B)
CONDITION DETAILS: human, Caco-2, pH 7.4
# maps each entry to its Papp A→B at 2 h, 2 μM

Task: Which measured Papp A→B at 2 h, 2 μM value corresponds to "Cc1nc2c(F)cc(-c3nc(Nc4ccc(CN5CCO[C@](C)(CCNCC(F)F)C5)cn4)ncc3F)cc2n1C(C)C" ?
Output: 1.12 ×10⁻⁶ cm/s

Task: Which measured Papp A→B at 2 h, 2 μM value corresponds to "Cc1nc2c(F)cc(-c3nc(Nc4ccc(CN5CCO[C@](C)(CC(=O)N(C)C)C5)cn4)ncc3F)cc2n1C(C)C" ?
Output: 0.11 ×10⁻⁶ cm/s

Task: Which measured Papp A→B at 2 h, 2 μM value corresponds to "Cc1nc2c(F)cc(-c3nc(Nc4ccc(CN5CCN(C)C(C)(C)C5)cn4)ncc3F)cc2n1C(C)C" ?
Output: 0.27 ×10⁻⁶ cm/s

Task: Which measured Papp A→B at 2 h, 2 μM value corresponds to "Cc1nc2c(F)cc(-c3nc(Nc4ccc(CN5CCO[C@](C)(CCN6CCOCC6)C5)cn4)ncc3F)cc2n1C(C)C" ?
Output: 0.91 ×10⁻⁶ cm/s

Task: Which measured Papp A→B at 2 h, 2 μM value corresponds to "Cc1nc2c(F)cc(-c3nc(Nc4ccc(CN5CCO[C@@](C)(CCN(C)C)C5)cn4)ncc3F)cc2n1C(C)C" ?
Output: 0.08 ×10⁻⁶ cm/s

Task: Which measured Papp A→B at 2 h, 2 μM value corresponds to "Cc1nc2c(F)cc(-c3nc(Nc4ccc(CN5CCO[C@@]6(CCN(S(C)(=O)=O)C6)C5)cn4)ncc3F)cc2n1C(C)C" ?
Output: 0.85 ×10⁻⁶ cm/s

Task: Which measured Papp A→B at 2 h, 2 μM value corresponds to "Cc1nc2c(F)cc(-c3nc(Nc4ccc(CN5CCO[C@](C)(CCN6CC[C@@H](F)C6)C5)cn4)ncc3F)cc2n1C(C)C" ?
Output: 0.8 ×10⁻⁶ cm/s

Task: Which measured Papp A→B at 2 h, 2 μM value corresponds to "CC(=O)N(C)CC[C@]1(C)CN(Cc2ccc(Nc3ncc(F)c(-c4cc(F)c5nc(C)n(C(C)C)c5c4)n3)nc2)CCO1" ?
Output: 2.35 ×10⁻⁶ cm/s

Task: Which measured Papp A→B at 2 h, 2 μM value corresponds to "CNC(=O)C[C@]1(C)CN(Cc2ccc(Nc3ncc(F)c(-c4cc(F)c5nc(C)n(C(C)C)c5c4)n3)nc2)CCO1" ?
Output: 0.7 ×10⁻⁶ cm/s

Task: Which measured Papp A→B at 2 h, 2 μM value corresponds to "COC(=O)N1CC[C@]2(CN(Cc3ccc(Nc4ncc(F)c(-c5cc(F)c6nc(C)n(C(C)C)c6c5)n4)nc3)CCO2)C1" ?
Output: 4.6 ×10⁻⁶ cm/s

Others:
Task: Which measured Papp A→B at 2 h, 2 μM value corresponds to "Cc1nc2c(F)cc(-c3nc(Nc4ccc(CN5CCO[C@](C)(CCN6CC(F)C6)C5)cn4)ncc3F)cc2n1C(C)C" ?
Output: 1.02 ×10⁻⁶ cm/s

Task: Which measured Papp A→B at 2 h, 2 μM value corresponds to "Cc1nc2c(F)cc(-c3nc(Nc4ccc(CN5CCO[C@](C)(CCN6CC(F)(F)C6)C5)cn4)ncc3F)cc2n1C(C)C" ?
Output: 2.62 ×10⁻⁶ cm/s

Task: Which measured Papp A→B at 2 h, 2 μM value corresponds to "Cc1nc2c(F)cc(-c3nc(Nc4ccc(CN5CCO[C@](C)(CC(=O)N6CCCC6)C5)cn4)ncc3F)cc2n1C(C)C" ?
Output: 1 ×10⁻⁶ cm/s
